test description: Cytotoxicity against human HCT116
Format: functional
condition parameters: HCT-116
measured parameter: pIC50
Please keep in mind that pIC50 is minus log10 of the molar concentration; only the number is needed.

Could you share which pIC50 value was measured for `COc1cc([C@@H]2c3cc4c(cc3[C@H](O)[C@H]3COC(=O)[C@H]23)OCO4)cc(OC)c1OC` ?
8.00

* * *

Test system: K562
test description: Cytotoxicity against human K562 cells assessed as reduction in viable cells after 48 hrs by MTT assay
Assay type: functional, cell-based
condition parameters: K562, 48 h
Consider the following molecules; for each one, report its pIC50.
Please keep in mind that pIC50 is minus log10 of the molar concentration; only the number is needed.

Could you share which pIC50 value was measured for `O=C1[C@@H](Cc2ccc3c(c2)OCO3)[C@H](Cc2ccc3c(c2)OCO3)C(=O)N1CCc1ccccc1` ?
5.04

Could you share which pIC50 value was measured for `COc1ccc(CNC(=O)[C@@H](Cc2ccc3c(c2)OCO3)[C@@H](CO)Cc2ccc3c(c2)OCO3)cc1` ?
5.08

Could you share which pIC50 value was measured for `COc1ccc(CN2C(=O)[C@@H](Cc3ccc4c(c3)OCO4)[C@H](Cc3ccc4c(c3)OCO4)C2=O)cc1` ?
5.06

* * *

Test system: HT-29
test description: Cytotoxicity against human HT-29 cells assessed as reduction in viable cells after 48 hrs by MTT assay
Type: functional, cell-based
condition parameters: HT-29, 48 h
measured parameter: pIC50
Please keep in mind that pIC50 is minus log10 of the molar concentration; only the number is needed.

Could you share which pIC50 value was measured for `O=C(NCc1ccc(F)cc1)[C@@H](Cc1ccc2c(c1)OCO2)[C@@H](CO)Cc1ccc2c(c1)OCO2` ?
4.61

Could you share which pIC50 value was measured for `O=C(NCCO)[C@@H](Cc1ccc2c(c1)OCO2)[C@@H](CO)Cc1ccc2c(c1)OCO2` ?
4.29

Could you share which pIC50 value was measured for `O=C(NCc1c[nH]c2ccccc12)[C@@H](Cc1ccc2c(c1)OCO2)[C@@H](CO)Cc1ccc2c(c1)OCO2` ?
4.28

Could you share which pIC50 value was measured for `O=C1[C@@H](Cc2ccc3c(c2)OCO3)[C@H](Cc2ccc3c(c2)OCO3)C(=O)N1CCc1ccccc1` ?
4.18

Could you share which pIC50 value was measured for OC1OC[C@@H](Cc2ccc3c(c2)OCO3)[C@@H]1Cc1ccc2c(c1)OCO2 (stereo not given in full) ?
4.34

Could you share which pIC50 value was measured for `O=C1[C@@H](Cc2ccc3c(c2)OCO3)[C@H](Cc2ccc3c(c2)OCO3)C(=O)N1Cc1ccccc1` ?
4.14

Could you share which pIC50 value was measured for `CC(C)CCNC(=O)[C@@H](Cc1ccc2c(c1)OCO2)[C@@H](CO)Cc1ccc2c(c1)OCO2` ?
4.62

Could you share which pIC50 value was measured for `COc1ccc(CN2C(=O)[C@@H](Cc3ccc4c(c3)OCO4)[C@H](Cc3ccc4c(c3)OCO4)C2=O)cc1` ?
4.14

Could you share which pIC50 value was measured for `O=C1[C@@H](Cc2ccc3c(c2)OCO3)[C@H](Cc2ccc3c(c2)OCO3)C(=O)N1Cc1ccc(F)cc1` ?
4.14

* * *

Consider the following compounds; for each one, report its pIC50.
Tested on: A549
test description: Cytotoxicity against human A549 cells assessed as reduction in viable cells after 48 hrs by MTT assay
Assay type: functional, cell-based
condition parameters: A549, 48 h
Please keep in mind that pIC50 is minus log10 of the molar concentration; only the number is needed.

Could you share which pIC50 value was measured for `COc1cccc(CNC(=O)[C@@H](Cc2ccc3c(c2)OCO3)[C@@H](CO)Cc2ccc3c(c2)OCO3)c1` ?
5.14

Could you share which pIC50 value was measured for `O=C1OC[C@@H](Cc2ccc3c(c2)OCO3)[C@@H]1Cc1ccc2c(c1)OCO2` ?
5.10

Could you share which pIC50 value was measured for OC1OC[C@@H](Cc2ccc3c(c2)OCO3)[C@@H]1Cc1ccc2c(c1)OCO2 (some centres undefined) ?
5.08

Could you share which pIC50 value was measured for `O=C(NCc1ccc(F)cc1)[C@@H](Cc1ccc2c(c1)OCO2)[C@@H](CO)Cc1ccc2c(c1)OCO2` ?
5.05

Could you share which pIC50 value was measured for `O=C1[C@@H](Cc2ccc3c(c2)OCO3)[C@H](Cc2ccc3c(c2)OCO3)C(=O)N1Cc1ccccc1` ?
4.23

Could you share which pIC50 value was measured for `OC[C@@H](Cc1ccc2c(c1)OCO2)[C@@H](CO)Cc1ccc2c(c1)OCO2` ?
4.12

Could you share which pIC50 value was measured for `O=C(NCc1ccccc1)[C@@H](Cc1ccc2c(c1)OCO2)[C@@H](CO)Cc1ccc2c(c1)OCO2` ?
4.96

Could you share which pIC50 value was measured for `O=C(NCCc1ccccc1)[C@@H](Cc1ccc2c(c1)OCO2)[C@@H](CO)Cc1ccc2c(c1)OCO2` ?
5.14
